cytotoxicity at 10 µM overview
Assay: Toxicity liver stage against HepG2, at 10uM
Format: cell-based
Parameters: test concentration 10 uM, cell line HepG2-A16-CD81EGFP
Details: human, HepG2-A16-CD81EGFP cells; read-out: INHIBITION
Supply the numeric figure in %, leaving out any unit text.

Answered cases to consult:
CSc1ncc(C(=O)N(C)C(C)Cc2ccccn2)cn1 (stereo not drawn); 15.9
CCN1CC(C(=O)N2CCN(CCn3cccc3)CC2)CC1=O (stereo not drawn); -3.64
CN(CCc1cccs1)C1CCCN(Cc2noc(C3CC3)n2)C1 (stereo not drawn); -12.5
O=C(Cc1ccsc1)N1C[C@@H]2OCCN(c3cnccn3)[C@@H]2C1; 11.6
CC(C)N1[C@H](Cn2cncn2)C[C@@H]2CNCC[C@@H]21; 1.9

Could you please provide reported cytotoxicity at 10 µM for `COc1cccc(-c2cc(NCCN(C)C)nc3[nH]ccc23)n1` ? Thanks! -3.97

Return value of cytotoxicity at 10 µM for input `Cc1ccc2c(cnn2CCC(=O)NCc2csc(C)n2)c1` , no commentary. 1.14

Give cytotoxicity at 10 µM for COc1cc(Br)cc(CNC2CCCNC2=O)c1O (stereo not drawn) 2.37

Annotate the molecule `Cc1nc(CN2CCCN(Cc3nccn3C(C)C)CC2)no1` with its measured cytotoxicity at 10 µM. -1.91

Return the recorded cytotoxicity at 10 µM value; entry: `CN(Cc1ccco1)C(=O)[C@H]1CSCN1C(=O)OC(C)(C)C` -8.97

Look up cytotoxicity at 10 µM of `N#Cc1c[nH]nc1NCc1ccc2c(c1)OCO2` and report it. -8.75

Given `Cc1nn(CCc2nnc(NCC(C)C)s2)c(C)c1Br` , respond with its cytotoxicity at 10 µM. 1.91

Identify measured cytotoxicity at 10 µM associated with `CCn1nc(C)c2nc(C(C)C)nc(N3CCCC3)c21` -1.61

----------
Test: Toxicity liver stage against HepG2, at 10uM
Type: cell-based
Parameters: test concentration 10 uM, cell line HepG2-A16-CD81EGFP
Settings: human, HepG2-A16-CD81EGFP cells; read-out: INHIBITION
Reported cytotoxicity at 10 µM by item:
Record the value in %, omitting the unit from your answer.

CCCNC(=O)CN1CCC(NCc2csc(C(C)C)n2)CC1; -1.4
CCN(CC)Cc1nnc2sc(C(C)Oc3ccccc3)nn12 (stereo unspecified); 8.35
CNC(=O)C1CN(C(C)C)CCN1c1nc(C)cc(C)n1 (stereo unspecified); -10.4
O=C(CC(F)(F)F)Nc1cc(F)ccc1OCC1CCCO1 (stereo unspecified); 5.48
CCc1nccn1CCC(=O)N1CC[C@H](CO)[C@H](O)C1; -1.2

Please indicate cytotoxicity at 10 µM recorded for `CC(C)NC(=O)CCNC(=O)c1cnc(Cc2ccc(F)cc2)s1` 2.87

Tell me its cytotoxicity at 10 µM given CC(C)S(=O)(=O)C(C)C(=O)NCc1ccccc1COc1ccccc1 (stereo unspecified) as the entry. 12.1

Give a short answer stating reported cytotoxicity at 10 µM for `COCC(=O)N1CCc2ccccc2C12CCNCC2` . -0.602

State, in one line, measured cytotoxicity at 10 µM of CCN(Cc1ccccc1)C1CCN(c2cc(C)nn2C)C1=O (stereo unspecified) -3.03

Assign cytotoxicity at 10 µM to the following record: Cc1ccc2oc(C(=O)N3CCCC(n4nc(C)nc4C)C3)cc2n1 (stereo unspecified) -7.39

Numbers sourced from ChEMBL document CHEMBL4513216.
